- Assay Target: Recombinant STAT3 protein (STAT3(G127-I722)) (Homo sapiens)
- Construct: STAT3(G127-I722)
- Sequence (P40763 127-722, species assumed): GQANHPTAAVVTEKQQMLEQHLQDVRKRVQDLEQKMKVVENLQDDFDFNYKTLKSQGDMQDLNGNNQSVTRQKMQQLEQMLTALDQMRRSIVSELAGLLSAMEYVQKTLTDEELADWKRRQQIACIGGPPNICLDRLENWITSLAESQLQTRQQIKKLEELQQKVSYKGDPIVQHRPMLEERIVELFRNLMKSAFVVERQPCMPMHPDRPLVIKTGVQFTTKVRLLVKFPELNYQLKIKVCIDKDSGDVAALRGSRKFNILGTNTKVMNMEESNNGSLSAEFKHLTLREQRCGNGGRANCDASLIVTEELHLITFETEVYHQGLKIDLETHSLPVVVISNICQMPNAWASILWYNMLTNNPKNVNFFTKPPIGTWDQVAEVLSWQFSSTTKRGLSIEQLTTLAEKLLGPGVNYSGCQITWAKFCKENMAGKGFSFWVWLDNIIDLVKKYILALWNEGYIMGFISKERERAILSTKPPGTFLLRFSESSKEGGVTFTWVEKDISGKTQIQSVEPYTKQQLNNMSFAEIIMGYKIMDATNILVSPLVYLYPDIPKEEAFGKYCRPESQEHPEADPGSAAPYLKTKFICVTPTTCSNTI
- Method Description: STAT3 Fluorescence Polarization (FP) Assay
- Condition Notes: STAT3(G127-I722) 25 nM, probe 5-FAM-GpYLPQTV-NH2 2 nM, 45-minute incubation
For each entry below, report its IC50 value.

Name the recorded IC50 for O=C(N[C@H]1C[C@H]2C[C@H]2C[C@H]2CC[C@@H](C(=O)N3CC[C@H](c4cnccc4F)C3)N2C1=O)c1cc2cc(C(F)P(=O)(O)O)ccc2s1 (stereo partly drawn) .
< 0.1 µM

May I ask what IC50 has been recorded for "O=C(N[C@H]1C[C@@H]2C[C@@H]2C[C@H]2CC[C@@H](C(=O)N3CC(c4ncco4)C3)N2C1=O)c1cc2cc(C(F)(F)P(=O)(O)O)ccc2s1" ?
< 0.1 µM

Value lookup for IC50; key = "CCOc1ccncc1C1CN(C(=O)[C@@H]2CC[C@@H]3C[C@H]4C[C@H]4C[C@H](NC(=O)c4cc5cc([C@@H](F)P(=O)(O)O)ccc5s4)C(=O)N32)C1"
< 0.1 µM

Values from patent US20250215030A1
